# assay-protocol: Quantitative High-Throughput drug screen in 47 multiple myeloma cell lines against the NCATS MIPE library collection: PE2_PLB cell viability assay (AID 1919869); note: nearly all actives have a fitted effect of over 35% in size
# measurement-parameters: PE2_PLB myeloma cells viability, ATP luminescence, 48 h; series mostly up to 45.8 µM
Records with an inconclusive call do not appear. Activity calls are given as the source filed them. Calls come from the whole dose curve; as a rule, active = well fitted cell-killing curve with a large enough effect; inconclusive = small, poorly fitted or top-dose-only effect, or effect the other way; inactive = no such curve, though single readings can be large or run the other way.
Your answer must be one of the following: active, inactive

// below: answered compounds
C=CCc1cc(OC)c(O)c(C(=O)NCCO)c1; inactive
COC(=O)C1=C(C)NC(C)=C(C(=O)OCCCN2CCC(c3ccccc3)(c3ccccc3)CC2)C1c1cccc([N+](=O)[O-])c1 (configuration not stated); inactive
CC1=C(C(=O)O)N2C(=O)[C@@H](NC(=O)[C@H](N)C3=CCC=CC3)[C@H]2SC1; inactive
Cc1nc2n(c(=O)c1CCN1CCC(c3noc4cc(F)ccc34)CC1)CCCC2; inactive
Nc1nc(Cl)nc2c1ncn2[C@H]1C[C@H](O)[C@@H](CO)O1; active
CCCCCCCCOc1ccccc1C(=O)Nc1ccc(C(=O)OCC[N+](C)(CC)CC)cc1; active

[in] Lab log entry: Cc1ccc(Nc2nccc(N(C)c3ccc4c(C)n(C)nc4c3)n2)cc1S(N)(=O)=O — outcome as called in the assay?
[out] active

[in] Lab log entry: CCCCc1ccc2nc(NC(=O)OC)[nH]c2c1 — outcome as called in the assay?
[out] active

[in] Lab log entry: COc1cc2c(N3CCN(C(=O)Nc4ccc(OC(C)C)cc4)CC3)ncnc2cc1OCCCN1CCCCC1 — outcome as called in the assay?
[out] active

[in] Lab log entry: O=C(CCc1ccc(O)cc1)c1c(O)cc(O)cc1O — outcome as called in the assay?
[out] active

[in] Lab log entry: Nc1nc(N)c(N=O)c(OCC2CCCCC2)n1 — outcome as called in the assay?
[out] active

[in] Lab log entry: O=C(O)c1cccc(-c2noc(-c3ccccc3F)n2)c1 — outcome as called in the assay?
[out] inactive

[in] Lab log entry: CCC(C)(Oc1ccc(C2(c3ccc(OC(C)(CC)C(=O)O)cc3)CCCCC2)cc1)C(=O)O (configuration not stated) — outcome as called in the assay?
[out] inactive

[in] Lab log entry: CC(C)Oc1ccc2c(=O)c(-c3ccccc3)coc2c1 — outcome as called in the assay?
[out] inactive

[in] Lab log entry: CCN(CC)CCOc1ccc(Cc2ccccc2)cc1 — outcome as called in the assay?
[out] inactive

[in] Lab log entry: N=C(N)c1ccc2cc(OC(=O)c3ccc(N=C(N)N)cc3)ccc2c1 — outcome as called in the assay?
[out] active

----------
# assay-protocol: Quantitative High-Throughput drug screen in 47 multiple myeloma cell lines against the NCATS MIPE library collection: AMO1_DSMZ cell viability assay (AID 1918927; note: nearly all actives have a fitted effect of over 30% in size; note: potency is the fitted concentration of half-maximal effect)
# measurement-parameters: AMO1 myeloma cells viability, CellTiter-Glo ATP luminescence, 48 h; series mostly up to 45.8 µM
Inconclusive results are not listed. Activity calls are given as the source filed them. The call rests on the fitted dose curve; in most records, active means well fitted cell-killing curve with a large enough effect; inconclusive means small, poorly fitted or top-dose-only effect, or effect the other way; inactive means no such curve, though single readings can be large or run the other way.
metric: Potency

# count of solved cases: 5
O=C(CS(=O)Cc1ccco1)NCC=CCOc1cc(CN2CCCCC2)ccn1 (stereo unspecified); inactive
Nc1cc(C(Cl)=C(Cl)Cl)c(S(N)(=O)=O)cc1S(N)(=O)=O; inactive
COCCCN1CCC(NC(=O)c2cc(Cl)c(N)c3c2OCC3)CC1; 14.8 µM (active)
CNC[C@@H](O)[C@@H](O)[C@H](O)[C@H](O)CO; inactive
CC(=O)N1CCN(c2ccc(OC[C@H]3CO[C@](Cn4ccnc4)(c4ccc(Cl)cc4Cl)O3)cc2)CC1; 7.43 µM (active)

[in] Can you share its Potency? I mean this molecule: Nc1ccc(S(N)(=O)=O)cc1
[out] inactive
